Test system: Escherichia coli ATCC 25922
measured-attribute: MIC (µM)

# example entries with known answers
CC[C@H](C)[C@H](NC(=O)[C@H](CCCN=C(N)N)NC(=O)[C@H](CCC(N)=O)NC(=O)[C@@H](NC(=O)[C@@H](NC(=O)[C@H](CCCN=C(N)N)NC(=O)[C@@H](N)CCCCN)[C@@H](C)CC)C(C)C)C(=O)N[C@@H](CCCCN)C(=O)N[C@@H](CC(=O)O)C(=O)N[C@@H](C)C(=O)N[C@@H](CC(C)C)C(=O)N[C@@H](CCCN=C(N)N)C(=O)O
10
CC[C@H](C)[C@H](NC(=O)[C@@H]1CCCN1C(=O)[C@@H]1CCCN1C(=O)[C@H](CCCN=C(N)N)NC(=O)[C@H](Cc1ccccc1)NC(=O)[C@@H](N)CCCN=C(N)N)C(=O)N[C@@H](CCCN=C(N)N)C(=O)N[C@@H](CCCN=C(N)N)C(=O)N1CCC[C@H]1C(=O)N1CCC[C@H]1C(=O)N[C@H](C(=O)N[C@@H](CCCN=C(N)N)C(=O)N1CCC[C@H]1C(=O)N1CCC[C@H]1C(=O)N[C@@H](Cc1ccccc1)C(=O)N[C@@H](Cc1ccc(O)cc1)C(=O)N1CCC[C@H]1C(=O)O)[C@@H](C)CC
16

[A] C[C@H](NC(=O)[C@H](Cc1ccccc1)NC(=O)[C@H](CCCCN)NC(=O)[C@H](CCCCN)NC(=O)[C@H](C)NC(=O)[C@@H](N)Cc1ccccc1)C(=O)N[C@@H](CCCCN)C(=O)N[C@@H](CCCCN)C(=O)N[C@@H](Cc1ccccc1)C(=O)N[C@@H](CCCCN)C(N)=O
[B] CC(C)C[C@H](NC(=O)[C@@H](NC(=O)CNC(=O)[C@H](C)NC(=O)[C@H](CC(C)C)NC(=O)[C@H](CS)NC(=O)[C@H](CCCN=C(N)N)NC(=O)[C@H](C)NC(=O)[C@H](CC(C)C)NC(=O)CN)[C@@H](C)O)C(=O)O
### Prompt Could you point out whether the larger MIC belongs to A or to B ? Kindly give the label for the entry you pick.
### Response A
(A: 193 µM, B: 8.21 µM)

###

Tested on: Listeria monocytogenes LO28
measured-attribute: MIC (µM)
Please reply with the bare figure in µM and do not write the unit itself.

CC[C@H](C)[C@H](NC(=O)[C@@H](N)Cc1c[nH]c2ccccc12)C(=O)N[C@@H](CCC(N)=O)C(=O)N[C@@H](C)C(=O)N[C@@H](CCCCN)C(=O)N[C@H](C(=O)N[C@@H](CCCCN)C(=O)N[C@H](C(=O)N[C@H](C(=O)N1CCC[C@H]1C(=O)N[C@@H](Cc1ccc(O)cc1)C(=O)N[C@H](C(=O)N[C@@H](CCCN=C(N)N)C(=O)N[C@@H](Cc1ccc(O)cc1)C(=O)N[C@@H](CC(C)C)C(=O)O)C(C)C)[C@@H](C)CC)C(C)C)[C@@H](C)O [WIQAKTKVIPYVRYL]
9.77

### Prompt # return MIC of CC[C@H](C)[C@H](NC(=O)[C@@H](N)Cc1c[nH]c2ccccc12)C(=O)N[C@@H](CCC(N)=O)C(=O)N1CCC[C@H]1C(=O)N[C@@H](CCCCN)C(=O)N[C@@H](C)C(=O)N[C@@H](CCCCN)C(=O)N[C@H](C(=O)N[C@H](C(=O)N1CCC[C@H]1C(=O)N[C@@H](Cc1ccc(O)cc1)C(=O)N[C@H](C(=O)N[C@@H](CCCN=C(N)N)C(=O)N[C@@H](Cc1ccc(O)cc1)C(=O)N[C@@H](CC(C)C)C(=O)O)C(C)C)[C@@H](C)CC)C(C)C [WIQPKAKVIPYVRYL] (system: Listeria monocytogenes LO28)
### Response 19.5

###

Target or system Candida albicans ATCC 10231: recorded MIC listed per item.
Please reply with the bare figure in µM and do not write the unit itself.

# example entries with known answers
CC[C@H](C)[C@H](NC(=O)CN)C(=O)N[C@@H](CC(C)C)C(=O)N[C@@H](CC(=O)O)C(=O)N[C@H](C(=O)N[C@@H](CCCCN)C(=O)N[C@@H](CC(N)=O)C(=O)N[C@@H](CCCCN)C(=O)N[C@H](C(=O)N[C@@H](CO)C(=O)N[C@@H](CC(N)=O)C(=O)N[C@@H](CC(C)C)C(=O)N[C@@H](Cc1ccccc1)C(N)=O)C(C)C)[C@@H](C)CC
62.5
CC[C@H](C)[C@H](NC(=O)CNC(=O)[C@H](CO)NC(=O)[C@H](CC(C)C)NC(=O)[C@H](C)NC(=O)[C@H](CCCN=C(N)N)NC(=O)CNC(=O)[C@@H](NC(=O)[C@H](CC(C)C)NC(=O)[C@@H]1CCCN1C(=O)[C@H](CC(C)C)NC(=O)[C@@H](N)Cc1ccccc1)[C@@H](C)CC)C(=O)N[C@@H](CC(C)C)C(N)=O
10
CC[C@H](C)[C@H](NC(=O)CNC(=O)[C@H](CO)NC(=O)[C@H](CC(C)C)NC(=O)[C@@H](NC(=O)[C@H](CCCN=C(N)N)NC(=O)CNC(=O)[C@@H](NC(=O)[C@H](C)NC(=O)[C@@H]1CCCN1C(=O)[C@H](CC(C)C)NC(=O)[C@@H](N)Cc1ccccc1)[C@@H](C)CC)C(C)C)C(=O)N[C@@H](CC(C)C)C(N)=O
10

### Prompt # return MIC of N[C@@H](CC(=O)O)C(=O)N[C@@H](CC(=O)O)C(=O)N[C@@H](CC(=O)O)C(=O)N[C@@H](Cc1ccc(O)cc1)C(=O)O (system: Candida albicans ATCC 10231)
### Response 4290

### Prompt # return MIC of CC(C)C[C@H](NC(=O)[C@H](Cc1cnc[nH]1)NC(=O)[C@H](CCCCN)NC(=O)[C@H](CC(C)C)NC(=O)[C@H](CC(C)C)NC(=O)[C@H](Cc1cnc[nH]1)NC(=O)[C@H](CCCCN)NC(=O)[C@H](CC(C)C)NC(=O)[C@H](CC(C)C)NC(=O)[C@H](Cc1cnc[nH]1)NC(=O)[C@H](CCCCN)NC(=O)[C@H](CC(C)C)NC(=O)[C@H](C)NC(=O)[C@H](CC(=O)O)NC(=O)[C@@H](N)CC(=O)O)C(=O)O (system: Candida albicans ATCC 10231)
### Response 12.5

### Prompt # return MIC of CC[C@H](C)[C@H](NC(=O)[C@H](CCCCN)NC(=O)[C@H](Cc1c[nH]c2ccccc12)NC(=O)[C@@H](N)CC(C)C)C(=O)NCC(=O)N[C@@H](Cc1c[nH]c2ccccc12)C(=O)N[C@@H](CCCCN)C(=O)N[C@H](C(=O)N[C@@H](Cc1c[nH]c2ccccc12)C(=O)N[C@@H](CCCN=C(N)N)C(=O)N[C@H](C(=O)NCC(=O)O)C(C)C)[C@@H](C)CC (system: Candida albicans ATCC 10231)
### Response 83

### Prompt # return MIC of C[C@H](NC(=O)[C@H](CCCCN)NC(=O)[C@H](Cc1ccccc1)NC(=O)[C@H](C)NC(=O)[C@H](CCCCN)NC(=O)[C@H](Cc1ccccc1)NC(=O)[C@H](C)NC(=O)[C@H](CCCCN)NC(=O)[C@H](Cc1ccccc1)NC(=O)[C@H](C)NC(=O)[C@H](CCCCN)NC(=O)[C@H](Cc1ccccc1)NC(=O)[C@H](C)NC(=O)[C@H](CCCCN)NC(=O)[C@H](Cc1ccccc1)NC(=O)[C@H](C)NC(=O)[C@H](CCCCN)NC(=O)[C@@H](N)Cc1ccccc1)C(=O)O (system: Candida albicans ATCC 10231)
### Response 169

###

Tested on: Candida albicans ATCC 90028
measured-attribute: MIC (µM)
Please reply with the bare figure in µM and do not write the unit itself.

### Prompt Name the recorded MIC of the item CC[C@H](C)[C@H](NC(=O)[C@@H](NC(=O)[C@H](CO)NC(=O)[C@H](C)NC(=O)[C@@H](NC(=O)[C@H](CCCCN)NC(=O)[C@H](CCCCN)NC(=O)[C@@H](NC(=O)[C@@H](NC(=O)[C@H](CC(=O)O)NC(=O)[C@H](Cc1c[nH]c2ccccc12)NC(=O)[C@H](CC(C)C)NC(=O)CN)C(C)C)[C@@H](C)CC)C(C)C)C(C)C)C(=O)NCC(=O)NCC(=O)N[C@@H](CC(C)C)C(=O)O in your answer.
### Response 19.3

###

Target or system Escherichia coli ATCC 25922: recorded MIC listed per item.
Please reply with the bare figure in µM and do not write the unit itself.

# example entries with known answers
CC[C@H](C)[C@H](NC(=O)[C@H](CCCCN)NC(=O)[C@H](CCCCN)NC(=O)[C@@H](N)CCC(N)=O)C(=O)N[C@@H](CCCN=C(N)N)C(=O)N[C@H](C(=O)N[C@@H](CCCN=C(N)N)C(=O)N[C@@H](CC(C)C)C(=O)N[C@@H](CO)C(=O)N[C@@H](C)C(=O)O)C(C)C
3.34
CC(C)C[C@H](NC(=O)[C@H](C)N)C(=O)N[C@@H](Cc1ccc(O)cc1)C(=O)N[C@@H](CCCCN)C(=O)N[C@@H](CCCCN)C(=O)N[C@@H](Cc1ccccc1)C(=O)N[C@@H](CCCCN)C(=O)N[C@@H](CCCCN)C(=O)N[C@@H](CCCCN)C(=O)N[C@@H](CC(C)C)C(=O)N[C@@H](CC(C)C)C(=O)N[C@@H](CCCCN)C(=O)N[C@@H](CO)C(=O)N[C@@H](CC(C)C)C(=O)N[C@@H](CCCCN)C(=O)N[C@@H](CCCN=C(N)N)C(=O)N[C@@H](CC(C)C)C(=O)NCC(=O)O
8.7
CC[C@H](C)[C@H](NC(=O)[C@H](CCCCN)NC(=O)[C@H](CCCCN)NC(=O)[C@H](C)NC(=O)[C@@H](NC(=O)[C@H](C)NC(=O)[C@H](CC(C)C)NC(=O)[C@H](CC(C)C)NC(=O)[C@H](CCCCN)NC(=O)[C@H](CCCCN)NC(=O)[C@H](CC(C)C)NC(=O)[C@H](CC(N)=O)NC(=O)[C@@H](N)CC(C)C)C(C)C)C(=O)N[C@@H](CC(C)C)C(N)=O
4

Next compound, please.
### Prompt # return MIC of CC(C)[C@H](N)C(=O)N[C@@H](CCCCN)C(=O)N[C@@H](CCCN=C(N)N)C(=O)N[C@@H](Cc1c[nH]c2ccccc12)C(=O)N[C@@H](CCCCN)C(=O)N[C@@H](CCCCN)C(=O)N[C@@H](Cc1c[nH]c2ccccc12)C(=O)N[C@@H](Cc1ccccc1)C(=O)N[C@@H](CCCN=C(N)N)C(=O)N[C@@H](CCCCN)C(=O)N[C@@H](Cc1c[nH]c2ccccc12)C(=O)N[C@@H](CCCCN)C(=O)N[C@@H](CCCCN)C(=O)N[C@@H](Cc1c[nH]c2ccccc12)C(=O)N[C@H](C(N)=O)C(C)C (system: Escherichia coli ATCC 25922)
### Response 2.1

These measurements were taken from DBAASP.
